The reported numbers originate from ChEMBL document CHEMBL1144524.

- System Name: Androgen receptor (Homo sapiens) (UniProt P10275)
- Sequence (whole entry): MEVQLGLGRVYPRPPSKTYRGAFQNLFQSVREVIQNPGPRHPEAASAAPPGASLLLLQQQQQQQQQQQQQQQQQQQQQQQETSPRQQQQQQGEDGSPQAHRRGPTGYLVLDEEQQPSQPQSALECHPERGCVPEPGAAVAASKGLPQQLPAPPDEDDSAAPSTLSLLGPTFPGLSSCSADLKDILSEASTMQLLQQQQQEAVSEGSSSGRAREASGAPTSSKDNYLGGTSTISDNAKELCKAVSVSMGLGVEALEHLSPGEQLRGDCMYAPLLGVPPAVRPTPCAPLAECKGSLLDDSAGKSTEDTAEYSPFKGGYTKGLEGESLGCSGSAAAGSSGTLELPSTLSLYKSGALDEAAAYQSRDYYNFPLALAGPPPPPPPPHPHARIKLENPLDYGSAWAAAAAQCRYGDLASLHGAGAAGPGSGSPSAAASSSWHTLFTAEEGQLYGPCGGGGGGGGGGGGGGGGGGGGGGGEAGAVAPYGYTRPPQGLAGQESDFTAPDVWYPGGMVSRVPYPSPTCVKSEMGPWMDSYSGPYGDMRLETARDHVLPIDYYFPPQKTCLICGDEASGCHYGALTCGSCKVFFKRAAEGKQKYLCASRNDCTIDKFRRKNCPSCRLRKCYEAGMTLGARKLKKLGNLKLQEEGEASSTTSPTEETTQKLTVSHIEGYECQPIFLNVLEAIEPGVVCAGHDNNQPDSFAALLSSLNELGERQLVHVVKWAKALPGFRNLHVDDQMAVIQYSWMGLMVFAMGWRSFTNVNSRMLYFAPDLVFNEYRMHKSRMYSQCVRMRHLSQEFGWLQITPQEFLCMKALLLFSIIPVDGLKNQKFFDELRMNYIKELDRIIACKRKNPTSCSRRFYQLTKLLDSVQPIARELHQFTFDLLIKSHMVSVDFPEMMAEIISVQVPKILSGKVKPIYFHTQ
- Measurement Parameters: HeLa
- Description: Agonist activity at androgen receptor expressed in HeLa cells assessed as effect on dihydrotestosterone-induced transcriptional activity by reporter gene assay
Assay Endpoint: FI5

Compound	System Name	FI5
CCCN(C)C(=O)CCCCCCCC1C[C@H]2CC(=O)CC[C@]2(C)[C@H]2CC[C@]3(C)[C@@H](O)CC[C@H]3[C@H]12 (stereo partly specified)	Androgen receptor (Homo sapiens) (UniProt P10275)	> 10 µM
CCCNC(=O)CCCCCCCC1C[C@H]2CC(=O)CC[C@]2(C)[C@H]2CC[C@]3(C)[C@@H](O)CC[C@H]3[C@H]12 (stereo partly specified)	Androgen receptor (Homo sapiens) (UniProt P10275)	> 10 µM

[Q] Fill blank: measured FI5 of the compound CNC(=O)CCCCCCCC1C[C@H]2CC(=O)CC[C@]2(C)[C@H]2CC[C@]3(C)[C@@H](O)CC[C@H]3[C@H]12 (stereo partly specified) is ____.
[A] > 10 µM

[Q] Next record, please: CCN(C)C(=O)CCCCCCCC1C[C@H]2CC(=O)CC[C@]2(C)[C@H]2CC[C@]3(C)[C@@H](O)CC[C@H]3[C@H]12 (stereo partly specified)
[A] > 10 µM

[Q] Next record, please: CN(C)C(=O)CCCCCCC1C[C@H]2CC(=O)CC[C@]2(C)[C@H]2CC[C@]3(C)[C@@H](O)CC[C@H]3[C@H]12 (stereo partly specified)
[A] 0.49 µM

[Q] Next record, please: C[C@]12CC[C@H]3[C@@H]([C@H](CCCCCCCCCCC[S+]([O-])CCCC(F)(F)C(F)(F)F)CC4CC(=O)CC[C@@]43C)[C@@H]1CC[C@@H]2O (stereo partly specified)
[A] > 10 µM

----------
Record: IC50 reported on UniProtKB P10275.
Number only, in nM; omit the unit.

Compound	Measurement Units	IC50
CCCCN(C)C(=O)CCCCCCCCCC[C@@H]1CC2CC(=O)CC[C@]2(C)[C@H]2CC[C@]3(C)[C@@H](O)CC[C@H]3[C@H]12 (stereo partly drawn)	nM	1300
CCN(CC)C(=O)CCCCCCCC1C[C@H]2CC(=O)CC[C@]2(C)[C@H]2CC[C@]3(C)[C@@H](O)CC[C@H]3[C@H]12 (stereo partly drawn)	nM	300
CCCCN(C)C(=O)CCCCCCC[C@@H]1CC2CC(=O)CC[C@]2(C)[C@H]2CC[C@]3(C)[C@@H](O)CC[C@H]3[C@H]12 (stereo partly drawn)	nM	340

[Q] Fill blank: measured IC50 of the compound CCCCCCNC(=O)CCCCCCCC1C[C@H]2CC(=O)CC[C@]2(C)[C@H]2CC[C@]3(C)[C@@H](O)CC[C@H]3[C@H]12 (stereo partly drawn) is ____.
[A] 6600

[Q] Next record, please: CCCCNC(=O)CCCCCCCC1C[C@H]2CC(=O)CC[C@]2(C)[C@H]2CC[C@]3(C)[C@@H](O)CC[C@H]3[C@H]12 (stereo partly drawn)
[A] 6300

[Q] Next record, please: CCCCN(C)C(=O)CCCCCCCC1C[C@H]2CC(=O)CC[C@]2(C)[C@H]2CC[C@]3(C)[C@@H](O)CC[C@H]3[C@H]12 (stereo partly drawn)
[A] 340

[Q] Next record, please: CCN(CC)C(=O)CCCCCCC1C[C@H]2CC(=O)CC[C@]2(C)[C@H]2CC[C@]3(C)[C@@H](O)CC[C@H]3[C@H]12 (stereo partly drawn)
[A] 530

----------
- System Name: Androgen receptor (Homo sapiens, UniProt P10275)
Assay Endpoint: IC50 (nM)
Number only, in nM; omit the unit.

Molecule	Measurement Units	Reading
CCCCN(C)C(=O)CCCCCCCCC[C@@H]1CC2CC(=O)CC[C@]2(C)[C@H]2CC[C@]3(C)[C@@H](O)CC[C@H]3[C@H]12 (stereo partly specified)	nM	1800
C[C@]12CCC(=O)C[C@@H]1CC(CCCCCCCC(N)=O)[C@@H]1[C@@H]2CC[C@]2(C)[C@@H](O)CC[C@@H]12 (stereo partly specified)	nM	450
CC(C)N(C)C(=O)CCCCCCCC1C[C@H]2CC(=O)CC[C@]2(C)[C@H]2CC[C@]3(C)[C@@H](O)CC[C@H]3[C@H]12 (stereo partly specified)	nM	420
CN(C)C(=O)CCCCCCC1C[C@H]2CC(=O)CC[C@]2(C)[C@H]2CC[C@]3(C)[C@@H](O)CC[C@H]3[C@H]12 (stereo partly specified)	nM	200

Consider the additional molecule presented here.
[Q] Fill blank: measured IC50 of the molecule CCCCN(C)C(=O)CCCCCCCC[C@@H]1CC2CC(=O)CC[C@]2(C)[C@H]2CC[C@]3(C)[C@@H](O)CC[C@H]3[C@H]12 (stereo partly specified) is ____.
[A] 3400

----------
Record: pIC50 reported on Androgen receptor (Homo sapiens, UniProt P10275).
# reply with the number alone; pIC50 is -log10 of concentration in mol/L

Compound	pIC50
CCCNC(=O)CCCCCCCC1C[C@H]2CC(=O)CC[C@]2(C)[C@H]2CC[C@]3(C)[C@@H](O)CC[C@H]3[C@H]12 (stereo partly drawn)	5.74

Consider the additional compound presented here.
[Q] Fill blank: measured pIC50 of the compound C[C@]12CCC(=O)C[C@@H]1CC(CCCCCCCC(=O)N1CCCC1)[C@@H]1[C@@H]2CC[C@]2(C)[C@@H](O)CC[C@@H]12 (stereo partly drawn) is ____.
[A] 6.52

----------
- System Name: Androgen receptor (Homo sapiens, UniProt P10275)
- Protocol Summary: biochemical
- Description: Displacement of [3H]mibolerone from androgen receptor expressed in CHOK1 cells
Assay Endpoint: IC50 (nM)
Number only, in nM; omit the unit.

Before answering, review these 2 worked examples.
                                   molecule  assay_endpoint  measurement_units  reading
0  CCCCN(C)C(=O)CCCCCCC[C@@H]1CC2CC(=O)CC[C@]2(C)[C@H]2CC[C@]3(C)[C@@H](O)CC[C@H]3[C@H]12 (stereo partly drawn)            IC50                 nM      280
1  CCCCN(C)C(=O)CCCCCCCCCC[C@@H]1CC2CC(=O)CC[C@]2(C)[C@H]2CC[C@]3(C)[C@@H](O)CC[C@H]3[C@H]12 (stereo partly drawn)            IC50                 nM     1900

[Q] Param readout = IC50; param system = Androgen receptor (Homo sapiens, UniProt P10275); param query = CCCCN(C)C(=O)CCCCCCCC1C[C@H]2CC(=O)CC[C@]2(C)[C@H]2CC[C@]3(C)[C@@H](O)CC[C@H]3[C@H]12 (stereo partly drawn) ; response: value
[A] 280

----------
Record: log10 IC50 reported on Androgen receptor (Homo sapiens).
Note: values are log10 of IC50 expressed in nM.

Molecule	Reading
CCCCN(C)C(=O)CCCCCCCCCCC[C@@H]1CC2CC(=O)CC[C@]2(C)[C@H]2CC[C@]3(C)[C@@H](O)CC[C@H]3[C@H]12 (stereo partly specified)	3.54
CNC(=O)CCCCCCCC1C[C@H]2CC(=O)CC[C@]2(C)[C@H]2CC[C@]3(C)[C@@H](O)CC[C@H]3[C@H]12 (stereo partly specified)	2.68
C[C@]12CC[C@H]3[C@@H]([C@H](CCCCCCCCC[S+]([O-])CCCC(F)(F)C(F)(F)F)CC4CC(=O)CC[C@@]43C)[C@@H]1CC[C@@H]2O (stereo partly specified)	3.46
C[C@]12CC[C@H]3[C@@H]([C@H](CCCCCCCCCCCCC[S+]([O-])CCCC(F)(F)C(F)(F)F)CC4CC(=O)CC[C@@]43C)[C@@H]1CC[C@@H]2O (stereo partly specified)	4.00

Consider the additional molecule presented here.
[Q] Fill blank: measured log10 IC50 of the molecule CCNC(=O)CCCCCCCC1C[C@H]2CC(=O)CC[C@]2(C)[C@H]2CC[C@]3(C)[C@@H](O)CC[C@H]3[C@H]12 (stereo partly specified) is ____.
[A] 2.97
